Collected MIC values appear next to each entry.
Test system: Enterobacter cloacae
Assay: Minimum inhibitory concentration against Enterobacter cloacae A13 (inoculum, 10e5 cfu per spot)
Assay type: functional
State the answer as a number, implicitly in µg/mL.

For the compound CC1=C(C(=O)OC(c2ccccc2)c2ccccc2)N2C(=O)[C@@H](NC3=NC(c4ccccc4)CN3)C2SC1 (some centres undefined) , give its measured MIC value.
2

Tell me its MIC given CC(=O)OCC1=C(C(=O)OC(c2ccccc2)c2ccccc2)N2C(=O)[C@@H](Nc3nc4cc(C)ccc4[nH]3)C2SC1 (some centres undefined) as the entry.
256

Return reported MIC. Input compound: CC(=O)OCC1=C(C(=O)OC(c2ccccc2)c2ccccc2)N2C(=O)[C@@H](NC3=NCCN3)C2SC1 (some centres undefined)
64

---

Here the recorded MIC is given for each entry.
System: Proteus mirabilis
Experiment: Minimum inhibitory concentration against Proteus mirabilis A18 (inoculum, 10e5 cfu per spot)
Type: functional
Answer in µg/mL, number only, no unit symbol.

Some molecules with recorded MIC:
{"columns": ["molecule", "unit-spec", "MIC"],
 "data": [
  ["Cn1nnnc1SCC1=C(C(=O)OC(c2ccccc2)c2ccccc2)N2C(=O)[C@@H](Nc3nc4cc(O)ccc4[nH]3)C2SC1 (stereo partly drawn)", "µg/mL", 0.5],
  ["CC(=O)OCC1=C(C(=O)OC(c2ccccc2)c2ccccc2)N2C(=O)[C@@H](Nc3nc4cc(F)ccc4[nH]3)C2SC1 (stereo partly drawn)", "µg/mL", 16],
  ["CC(=O)OCC1=C(C(=O)OC(C)(C)C)N2C(=O)[C@@H](Nc3nc4ccccc4n3C)C2SC1 (stereo partly drawn)", "µg/mL", 32],
  ["CC(=O)OCC1=C(C(=O)OC(C)(C)C)N2C(=O)[C@@H](Nc3nc4cc[nH]cc-4n3)C2SC1 (stereo partly drawn)", "µg/mL", 16]
]}

Fill in: MIC on Proteus mirabilis, entry CC(=O)OCC1=C(C(=O)OC(c2ccccc2)c2ccccc2)N2C(=O)[C@@H](Nc3nc4ccccc4s3)C2SC1 (stereo partly drawn)
200

---

Tested on: Enterobacter cloacae
Assay: Minimum inhibitory concentration against Enterobacter cloacae A13 (inoculum, 10e5 cfu per spot)
Assay type: functional
Reported values of MIC for individual entries

{"columns": ["molecule", "MIC"],
 "data": [
  ["Cn1nnnc1SCC1=C(C(=O)OC(c2ccccc2)c2ccccc2)N2C(=O)[C@@H](Nc3nc4cc(O)ccc4[nH]3)C2SC1 (stereo partly drawn)", "> 256 µg/mL"]
]}

Identify the reported MIC for the following entry. CC1=C(C(=O)OC(c2ccccc2)c2ccccc2)N2C(=O)[C@@H](NC3=NC(c4ccc(C#N)cc4)CN3)C2SC1 (stereo partly drawn)
> 256 µg/mL

State, in one line, measured MIC of CC(=O)OCC1=C(C(=O)OC(C)(C)C)N2C(=O)[C@@H](Nc3nc4cc[nH]cc-4n3)C2SC1 (stereo partly drawn)
32 µg/mL

Give MIC for the following molecule: CC(=O)OCC1=C(C(=O)OC(c2ccccc2)c2ccccc2)N2C(=O)[C@@H](Nc3nc4cc(F)ccc4[nH]3)C2SC1 (stereo partly drawn)
> 256 µg/mL

Please supply the value of reported MIC for the item CC1=C(C(=O)OC(c2ccccc2)c2ccccc2)N2C(=O)[C@@H](NC3=NCCN3)C2SC1 (stereo partly drawn)
4 µg/mL

---

System: Staphylococcus aureus
Assay: Minimum inhibitory concentration against Staphylococcus aureus A6 (inoculum, 10e5 cfu per spot)
Assay type: functional
metric: MIC (µg/mL)
Your answer is read as µg/mL, so omit the unit and give the number.

{"columns": ["molecule", "value"],
 "data": [
  ["CC1=C(C(=O)OC(c2ccccc2)c2ccccc2)N2C(=O)[C@@H](Nc3nc4ccccc4[nH]3)C2SC1 (some centres undefined)", 40]
]}

# ---- query molecule ----
For CC(=O)OCC1=C(C(=O)OC(C)(C)C)N2C(=O)[C@@H](Nc3nc4cc(N)ccc4[nH]3)C2SC1 (some centres undefined) , write its MIC.
2

---

System: Escherichia coli
Assay: Minimum inhibitory concentration against Escherichia coli A8 (inoculum, 10e5 cfu per spot)
Format: functional
Readings of MIC for the listed compounds
Report only the number, with the unit µg/mL understood.

Some compounds with known MIC results, for comparison:
{"columns": ["compound", "assayed-target", "MIC, µg/mL"],
 "data": [
  ["CC(=O)OCC1=C(C(=O)OC(c2ccccc2)c2ccccc2)N2C(=O)[C@@H](Nc3nc4cc(O)ccc4[nH]3)C2SC1 (some centres not stated)", "Escherichia coli", 0.12],
  ["CC1=C(C(=O)OC(c2ccccc2)c2ccccc2)N2C(=O)[C@@H](NC3=NC(C(N)=O)CN3)C2SC1 (some centres not stated)", "Escherichia coli", 32],
  ["CC1=C(C(=O)OC(c2ccccc2)c2ccccc2)N2C(=O)[C@@H](NC3=NCC(C)N3)C2SC1 (some centres not stated)", "Escherichia coli", 128],
  ["CC(=O)OCC1=C(C(=O)OC(c2ccccc2)c2ccccc2)N2C(=O)[C@@H](Nc3nc4cc(CC#N)ccc4[nH]3)C2SC1 (some centres not stated)", "Escherichia coli", 0.5],
  ["CC(=O)OCC1=C(C(=O)OC(C)(C)C)N2C(=O)[C@@H](Nc3nc4cc(N)ccc4[nH]3)C2SC1 (some centres not stated)", "Escherichia coli", 0.25]
]}

# return recorded MIC for input CC1=C(C(=O)OC(c2ccccc2)c2ccccc2)N2C(=O)[C@@H](NC3=NCCN3C)C2SC1 (some centres not stated)
40

Output MIC of CC1=C(C(=O)OC(c2ccccc2)c2ccccc2)N2C(=O)[C@@H](NC3=NCCN3)C2SC1 (some centres not stated)
2

Read off the recorded MIC for CC(=O)OCC1=C(C(=O)OC(c2ccccc2)c2ccccc2)N2C(=O)[C@@H](Nc3nc4cc(CN)ccc4[nH]3)C2SC1 (some centres not stated)
0.12

Please supply the value of reported MIC for the item CC(=O)OCC1=C(C(=O)OC(c2ccccc2)c2ccccc2)N2C(=O)[C@@H](Nc3nc4c(O)cccc4[nH]3)C2SC1 (some centres not stated)
1

---

System: Escherichia coli
Assay: Minimum inhibitory concentration against Escherichia coli A8 (inoculum, 10e5 cfu per spot)
Type: functional
Threshold 0.5 µg/mL: MIC strictly smaller gives Condition met, otherwise Condition not met.

{"columns": ["compound", "assayed-target", "cat"],
 "data": [
  ["CO/N=C(\\C(=O)N[C@@H]1C(=O)N2C(C(=O)O)=C(COC(C)=O)CS[C@H]12)c1csc(N)n1", "Escherichia coli", "Condition met"],
  ["CC(=O)OCC1=C(C(=O)OC(c2ccccc2)c2ccccc2)N2C(=O)[C@@H](Nc3nc4cc(C(=O)O)ccc4[nH]3)C2SC1 (stereo not given in full)", "Escherichia coli", "Condition not met"],
  ["CC(=O)OCC1=C(C(=O)OC(c2ccccc2)c2ccccc2)N2C(=O)[C@@H](Nc3nc4c(N)cccc4[nH]3)C2SC1 (stereo not given in full)", "Escherichia coli", "Condition not met"],
  ["CC(=O)OCC1=C(C(=O)OC(C)(C)C)N2C(=O)[C@@H](Nc3nc4cc[nH]cc-4n3)C2SC1 (stereo not given in full)", "Escherichia coli", "Condition not met"],
  ["CC1(C)S[C@@H]2[C@H](/N=C/N3CCCCCC3)C(=O)N2[C@H]1C(=O)O", "Escherichia coli", "Condition met"]
]}

Record Cn1nnnc1SCC1=C(C(=O)OC(C)(C)C)N2C(=O)[C@@H](NC3=NCCN3)C2SC1 (stereo not given in full) : is its MIC strictly below 0.5 µg/mL?
Condition not met

Could you please tell me whether MIC recorded for CC(=O)OCC1=C(C(=O)OC(c2ccccc2)c2ccccc2)N2C(=O)[C@@H](Nc3nc4ccccc4[nH]3)C2SC1 (stereo not given in full) is less than 0.5 µg/mL?
Condition not met

Confirm or reject: MIC of CC1=C(C(=O)OC(C)(C)C)N2C(=O)[C@@H](Nc3nc4ccccc4n3CC(=O)OC(C)(C)C)C2SC1 (stereo not given in full) lies strictly below 0.5 µg/mL
Condition not met

Quick check: MIC of CO[C@@]1(NC2=NCCN2)C(=O)N2C(C(=O)OC(c3ccccc3)c3ccccc3)=C(C)CSC21 (stereo not given in full) under 0.5 µg/mL?
Condition not met

---

Test system: Proteus mirabilis
Assay: Minimum inhibitory concentration against Proteus mirabilis A18 (inoculum, 10e5 cfu per spot)
Type: functional
metric: MIC

Reference set, count: 2
{"columns": ["compound", "value"],
 "data": [
  ["CC(=O)OCC1=C(C(=O)OC(C)(C)C)N2C(=O)[C@@H](Nc3nc4ccc[nH]c-4n3)C2SC1 (stereo partly drawn)", "32 µg/mL"],
  ["Cc1nnc(SCC2=C(C(=O)OC(C)(C)C)N3C(=O)[C@@H](NC4=NCCN4)C3SC2)s1 (stereo partly drawn)", "> 256 µg/mL"]
]}

Return the recorded MIC value; entry: CC1=C(C(=O)OC(c2ccccc2)c2ccccc2)N2C(=O)[C@@H](NC3=NCC(C)N3)C2SC1 (stereo partly drawn)
> 256 µg/mL

Each recorded value in this set is attributed to ChEMBL document CHEMBL1125626.
